Test Description: Enzymatic stability assessed as bovine pancreatic trypsin-mediated compound hydrolysis by measuring parent compound remaining at 100 uM incubated for 1 hr by LC-MS/MS analysis
Assay type: ADME, Bos taurus
Experimental Setup: cattle, read-out: Stabilty
Numbered stars: 1 amine (or outer) side, 2 acyl side, 3 side chain; on linkers, the order of the positions; unused ones are H or OH. Bridge positions count the residues as written; N and C are the ends. Square brackets hold non-standard residues; d marks the D form. Peptide text beside a SMILES is read from it. * marks the point of attachment. Trp(5-F) = N[C@@H](Cc1c[nH]c2ccc(F)cc12)C(=O)O; mXylylene = c1cc(C[*:1])cc(C[*:2])c1; αMeP = C[C@@]1(C(=O)O)CCCN1; X2 = COCCOCCOCCOCCC(=O)*; Mpa = O=C(O)CCS
Measurement Type: remaining at 1 h, 100 µM (%)
Response body: numeric value in %, unit text excluded.

# Compound, Measurement Type, Units Label, Value Measured
data = [
    ("CC(C)[C@H]1NC(=O)[C@H](CCCCN)NC(=O)CCSCc2cccc(c2)CSCCNC(=O)[C@]2(C)CCCN2C(=O)[C@H](Cc2ccc(O)cc2)NC(=O)[C@H](Cc2cnc[nH]2)NC(=O)[C@H](CC(=O)O)NC(=O)[C@H](Cc2c[nH]c3ccc(F)cc23)NC(=O)[C@H](Cc2c[nH]c3ccc(F)cc23)NC1=O", "remaining at 1 h, 100 µM", "%", 94.3),
]

Here's the next entry for you.
Which value of remaining at 1 h, 100 µM has been reported for COCCOCCOCCOCCC(=O)NCCCC[C@@H]1NC(=O)CCSCc2cccc(c2)CSC[C@@H](C(N)=O)NC(=O)[C@]2(C)CCCN2C(=O)[C@H](Cc2ccc(O)cc2)NC(=O)[C@H](Cc2cnc[nH]2)NC(=O)[C@H](CC(=O)O)NC(=O)[C@H](Cc2c[nH]c3ccc(F)cc23)NC(=O)[C@H](Cc2c[nH]c3ccc(F)cc23)NC(=O)CNC1=O ([Mpa]K(X2)G[Trp(5-F)][Trp(5-F)]DHY[αMeP]C-NH2; linker 1-10 via mXylylene) in the records? 96

* * *

Tested System: Chymotrypsinogen A (Bos taurus, UniProt P00766)
Test Description: Enzymatic stability assessed as bovine pancreatic alpha-chymotrypsin-mediated compound hydrolysis by measuring parent compound remaining at 100 uM incubated for 1 hr by LC-MS/MS analysis
Type: ADME
Experimental Setup: cattle, read-out: Stabilty
Numbered stars: 1 amine (or outer) side, 2 acyl side, 3 side chain; on linkers, the order of the positions; unused ones are H or OH. Bridge positions count the residues as written; N and C are the ends. Square brackets hold non-standard residues; d marks the D form. Peptide text beside a SMILES is read from it. * marks the point of attachment. Trp(5-F) = N[C@@H](Cc1c[nH]c2ccc(F)cc12)C(=O)O; Lys(Me3) = C[N+](C)(C)CCCC[C@H](N)C(=O)O; X1 = O=C(CCSCc1cccc(CSCCN[*:1])c1)[*:2]; mXylylene = c1cc(C[*:1])cc(C[*:2])c1; αMeP = C[C@@]1(C(=O)O)CCCN1; X2 = COCCOCCOCCOCCC(=O)*; Mpa = O=C(O)CCS
Measurement Type: remaining at 1 h, 100 µM (%)
Response body: numeric value in %, unit text excluded.

# Compound, Tested System, Units Label, remaining at 1 h, 100 µM
measured = [
    ("COCCOCCOCCOCCC(=O)NCCCC[C@@H]1NC(=O)CCSCc2cccc(c2)CSC[C@@H](C(N)=O)NC(=O)[C@]2(C)CCCN2C(=O)[C@H](Cc2ccc(O)cc2)NC(=O)[C@H](Cc2cnc[nH]2)NC(=O)[C@H](CC(=O)O)NC(=O)[C@H](Cc2c[nH]c3ccc(F)cc23)NC(=O)[C@H](Cc2c[nH]c3ccc(F)cc23)NC(=O)CNC1=O ([Mpa]K(X2)G[Trp(5-F)][Trp(5-F)]DHY[αMeP]C-NH2; linker 1-10 via mXylylene)", "Chymotrypsinogen A (Bos taurus, UniProt P00766)", "%", 39.5),
]

Here's the next entry for you.
Which value of remaining at 1 h, 100 µM has been reported for COc1ccc(C[C@@H]2NC(=O)[C@H](Cc3cnc[nH]3)NC(=O)[C@H](CC(=O)O)NC(=O)[C@H](Cc3c[nH]c4ccc(F)cc34)NC(=O)[C@H](Cc3c[nH]c4ccc(F)cc34)NC(=O)[C@@H](C)NC(=O)[C@H](CCCC[N+](C)(C)C)NC(=O)CCSCc3cccc(c3)CSCCNC(=O)[C@]3(C)CCCN3C2=O)cc1 (cyclo(DHY(Me)[αMeP][X1][Lys(Me3)][dA][Trp(5-F)][Trp(5-F)])) in the records? 24.2

* * *

This listing pairs compounds with measured Ki.
Tested System: PCSK9/LDLR (Homo sapiens, UniProt Q8NBP7)
Sequence (Q8NBP7 31-152 limits assumed): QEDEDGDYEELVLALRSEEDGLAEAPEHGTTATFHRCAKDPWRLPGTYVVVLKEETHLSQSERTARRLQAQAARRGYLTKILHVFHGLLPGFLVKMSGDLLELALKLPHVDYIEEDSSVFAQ
Sequence (Q8NBP7 153-692 limits assumed): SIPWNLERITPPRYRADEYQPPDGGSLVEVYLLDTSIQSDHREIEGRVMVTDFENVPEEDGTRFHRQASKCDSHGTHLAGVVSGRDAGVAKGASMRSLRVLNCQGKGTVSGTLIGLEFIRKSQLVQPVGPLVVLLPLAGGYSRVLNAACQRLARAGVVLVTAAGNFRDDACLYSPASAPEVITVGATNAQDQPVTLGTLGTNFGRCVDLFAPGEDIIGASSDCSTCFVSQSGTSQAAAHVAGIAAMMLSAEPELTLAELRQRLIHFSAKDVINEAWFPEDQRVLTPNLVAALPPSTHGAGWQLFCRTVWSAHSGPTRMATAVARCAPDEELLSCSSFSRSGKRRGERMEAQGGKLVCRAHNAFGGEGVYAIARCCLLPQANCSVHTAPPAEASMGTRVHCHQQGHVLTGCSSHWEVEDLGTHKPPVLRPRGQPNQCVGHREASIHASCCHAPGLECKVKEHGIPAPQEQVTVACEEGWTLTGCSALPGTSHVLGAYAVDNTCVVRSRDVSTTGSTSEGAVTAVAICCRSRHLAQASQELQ
Sequence (P01130 22-860 partner limits assumed): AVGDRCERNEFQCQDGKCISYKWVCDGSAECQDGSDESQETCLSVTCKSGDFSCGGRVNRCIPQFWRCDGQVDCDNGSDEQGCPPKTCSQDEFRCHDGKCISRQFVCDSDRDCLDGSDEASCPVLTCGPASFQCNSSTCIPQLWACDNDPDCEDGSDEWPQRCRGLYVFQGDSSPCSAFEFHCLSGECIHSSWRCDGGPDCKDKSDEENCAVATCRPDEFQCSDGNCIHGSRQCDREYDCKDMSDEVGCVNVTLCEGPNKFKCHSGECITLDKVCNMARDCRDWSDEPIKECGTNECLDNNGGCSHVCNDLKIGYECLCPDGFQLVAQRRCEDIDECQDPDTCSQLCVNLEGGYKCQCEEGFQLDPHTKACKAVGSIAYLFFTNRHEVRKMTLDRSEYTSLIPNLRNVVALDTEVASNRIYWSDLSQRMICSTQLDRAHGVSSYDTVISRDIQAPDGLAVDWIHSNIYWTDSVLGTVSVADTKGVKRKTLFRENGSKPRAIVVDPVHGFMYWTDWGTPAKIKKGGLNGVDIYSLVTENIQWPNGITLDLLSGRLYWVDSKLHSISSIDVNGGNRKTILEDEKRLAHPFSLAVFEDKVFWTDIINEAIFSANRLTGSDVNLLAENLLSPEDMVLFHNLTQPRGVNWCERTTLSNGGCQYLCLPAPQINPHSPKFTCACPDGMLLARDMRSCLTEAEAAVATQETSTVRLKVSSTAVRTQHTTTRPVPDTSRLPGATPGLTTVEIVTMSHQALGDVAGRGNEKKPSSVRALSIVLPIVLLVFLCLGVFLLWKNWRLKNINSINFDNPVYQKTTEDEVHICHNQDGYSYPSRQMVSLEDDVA
Test Description: Inhibition of avi-tagged-biotinylated human PCSK9 interaction with His-tagged human LDLR EGFa domain by LANCE Ulight Streptavidin based TR-FRET assay
Numbered stars: 1 amine (or outer) side, 2 acyl side, 3 side chain; on linkers, the order of the positions; unused ones are H or OH. Bridge positions count the residues as written; N and C are the ends. Square brackets hold non-standard residues; d marks the D form. Peptide text beside a SMILES is read from it. Trp(5-F) = N[C@@H](Cc1c[nH]c2ccc(F)cc12)C(=O)O; mXylylene = c1cc(C[*:1])cc(C[*:2])c1; Mpa = O=C(O)CCS
Response body: numeric value in nM, unit text excluded.

Tell me reported Ki for C[C@@H]1NC(=O)CNC(=O)[C@H](CCCCN)NC(=O)CCSCc2cccc(c2)CSC[C@@H](C(N)=O)NC(=O)[C@@H]2CCCN2C(=O)[C@H](Cc2ccc(O)cc2)NC(=O)[C@H](Cc2cnc[nH]2)NC(=O)[C@H](CC(=O)O)NC(=O)[C@H](Cc2c[nH]c3ccc(F)cc23)NC1=O ([Mpa]KGA[Trp(5-F)]DHYPC-NH2; linker 1-10 via mXylylene) , tested with PCSK9/LDLR (Homo sapiens, UniProt Q8NBP7). 656

Same for "NCCCC[C@@H]1NC(=O)CCSCc2cccc(c2)CSC[C@@H](C(N)=O)NC(=O)[C@@H]2CCCN2C(=O)[C@H](Cc2ccc(O)cc2)NC(=O)[C@H](Cc2c[nH]cn2)NC(=O)[C@H](CC(=O)O)NC(=O)[C@H](Cc2c[nH]c3ccc(F)cc23)NC(=O)[C@H](Cc2c[nH]c3ccc(F)cc23)NC(=O)CNC1=O" 110

* * *

Tested System: Chymotrypsinogen A (Bos taurus, UniProt P00766)
Test Description: Enzymatic stability assessed as bovine pancreatic alpha-chymotrypsin-mediated compound hydrolysis by measuring parent compound remaining at 100 uM incubated for 1 hr by LC-MS/MS analysis
Type: ADME
Experimental Setup: cattle, read-out: Stabilty
Numbered stars: 1 amine (or outer) side, 2 acyl side, 3 side chain; on linkers, the order of the positions; unused ones are H or OH. Bridge positions count the residues as written; N and C are the ends. Square brackets hold non-standard residues; d marks the D form. Peptide text beside a SMILES is read from it. Trp(5-F) = N[C@@H](Cc1c[nH]c2ccc(F)cc12)C(=O)O; X3 = O=C(CCSCc1cc(F)cc(CSCCN[*:1])c1)[*:2]; X1 = O=C(CCSCc1cccc(CSCCN[*:1])c1)[*:2]; mXylylene = c1cc(C[*:1])cc(C[*:2])c1; αMeP = C[C@@]1(C(=O)O)CCCN1; Mpa = O=C(O)CCS
Measurement Type: remaining at 1 h, 100 µM (%)
Response body: numeric value in %, unit text excluded.

Solved cases below.
# Compound, Units Label, remaining at 1 h, 100 µM
measured = [
    ("COc1ccc(C[C@@H]2NC(=O)[C@H]([C@@H](C)O)NC(=O)[C@@H]3CCC(=O)NCc4cccc(c4)C[C@H](NC(=O)[C@@H](C)NC(=O)[C@H](C)NC(=O)CCSCc4cccc(c4)CSCCNC(=O)[C@]4(C)CCCN4C2=O)C(=O)N[C@@H](Cc2c[nH]c4ccc(F)cc24)C(=O)N3)cc1", "%", 2.5),
    ("C[C@@]12CCCN1C(=O)[C@H](Cc1ccc(O)cc1)NC(=O)[C@H](Cc1cnc[nH]1)NC(=O)[C@H](CC(=O)O)NC(=O)[C@H](Cc1c[nH]c3ccc(F)cc13)NC(=O)[C@H](Cc1c[nH]c3ccc(F)cc13)NC(=O)CNC(=O)[C@H](CCCCN)NC(=O)CCSCc1cccc(c1)CSCCNC2=O (cyclo(DHY[αMeP][X1]KG[Trp(5-F)][Trp(5-F)]))", "%", 7.4),
    ("C[C@@H](O)[C@@H]1NC(=O)[C@@H]2CCCN2C(=O)[C@H](Cc2c[nH]c3ccc(F)cc23)NC(=O)[C@H](Cc2c[nH]c3ccc(F)cc23)NC(=O)CNC(=O)[C@H](CCCCN)NC(=O)CCSCc2cccc(c2)CSC[C@@H](C(N)=O)NC(=O)[C@]2(C)CCCN2C(=O)[C@H](Cc2ccc(O)cc2)NC1=O ([Mpa]KG[Trp(5-F)][Trp(5-F)]PTY[αMeP]C-NH2; linker 1-10 via mXylylene)", "%", 91),
    ("C[C@H]1NC(=O)[C@H](CCCCN)NC(=O)CCSCc2cc(F)cc(c2)CSCCNC(=O)[C@]2(C)CCCN2C(=O)[C@H](Cc2ccc(O)cc2)NC(=O)[C@H](Cc2cnc[nH]2)NC(=O)[C@H](CC(=O)O)NC(=O)[C@H](Cc2c[nH]c3ccc(F)cc23)NC(=O)[C@H](Cc2c[nH]c3ccc(F)cc23)NC1=O (cyclo(DHY[αMeP][X3]K[dA][Trp(5-F)][Trp(5-F)]))", "%", 20.1),
    ("COc1ccc(C[C@@H]2NC(=O)[C@H]([C@@H](C)O)NC(=O)[C@@H]3CCCN3C(=O)[C@@H]3Cc4cn(c5ccc(F)cc45)Cc4cn(nn4)-c4cc(cc(c4)CSCCC(=O)N[C@@H](C)C(=O)N[C@H](C)C(=O)N[C@@H](Cc4c[nH]c5ccc(F)cc45)C(=O)N3)CSCCNC(=O)[C@]3(C)CCCN3C2=O)cc1", "%", 91.8),
]

Which value of remaining at 1 h, 100 µM has been reported for "C[C@H]1NC(=O)[C@H](CCCCN)NC(=O)CCSCc2cccc(c2)CSCCNC(=O)[C@]2(C)CCCN2C(=O)[C@H](Cc2ccc(O)cc2)NC(=O)[C@H](Cc2cnc[nH]2)NC(=O)[C@H](CC(=O)O)NC(=O)[C@H](Cc2c[nH]c3ccc(F)cc23)NC(=O)[C@H](Cc2c[nH]c3ccc(F)cc23)NC1=O" in the records? 42.7
